Reported values of MLD for individual entries
tested on: Periplaneta americana; assay: Insecticidal activity against Periplaneta americana (American cockroach) assessed as killing compound injected into abdomen of cockroach after 24 hr in presence of 50 ug piperonyl butoxide oxidative metabolism inhibitor and 50 ug propargyl propyl benzenephosphonate inhibitor of hydrolytic; type: functional
// note: answer is a bare numeric in nmol

molecule | reading-unit | numeric-result
CN(C)/C(=N\C#N)NCc1ccc(Cl)nc1 | nmol | 140

Given `CN/C(=N\C#N)N(C)Cc1ccc(Cl)nc1` , state its recorded MLD.
54

// MLD lookup, key: `CN(C)/C(=N\C#N)N(C)Cc1ccc(Cl)nc1`
20

Return reported MLD; argument: `CCN/C(=N\C#N)N(C)Cc1ccc(Cl)nc1`
40

Can you look up the measured MLD of O=[N+]([O-])/N=C1\NCCN1Cc1ccc(Cl)nc1 [IMIDACLOPRID] for me?
0.07

Form field: reported MLD of `CN(Cc1ccc(Cl)nc1)/C(=N/C#N)NCc1ccccc1`
6.3

Param item = `N#C/N=C(\NCc1ccccc1)NCc1ccc(Cl)nc1` ; retrieve measured MLD.
66

What does the record list as MLD for N#C/N=C1\SCCN1Cc1ccc(Cl)nc1 [THIACLOPRID] ?
0.21

What measured MLD goes with `CN/C(=N\C#N)NCc1ccc(Cl)nc1` ?
8.9

State the recorded MLD for this entry: `CS/C(=N\C#N)N(C)Cc1ccc(Cl)nc1`
2.5

Consider the molecule `CS/C(=N\C#N)NCc1ccc(Cl)nc1` and give its measured MLD.
0.66

Need MLD of `CN(Cc1ccc(Cl)nc1)/C(N)=N/C#N` , thanks.
1.2

###

test system: Periplaneta americana; assay: Insecticidal activity against Periplaneta americana (American cockroach) assessed as killing compound injected into abdomen of cockroach after 24 hr in presence of 50 ug piperonyl butoxide oxidative metabolism inhibitor; type: functional
assay-metric: MLD (nmol)
Numbers only; they are read as nmol.

smiles-text | numeric-result
CN/C(=N\C#N)NCc1ccc(Cl)nc1 | 180
CS/C(=N\C#N)NCc1ccc(Cl)nc1 | 21

Proceeding to the next molecule to report its MLD.
Need MLD of `CS/C(=N\C#N)N(C)Cc1ccc(Cl)nc1` , thanks.
71

###

test system: Periplaneta americana; experiment: Insecticidal activity against Periplaneta americana (American cockroach) assessed as killing compound injected into abdomen of cockroach after 24 hr; format: functional
MLD for assorted compounds

smiles-text | tested-target | MLD
N#C/N=C(\NCc1ccccc1)NCc1ccc(Cl)nc1 | Periplaneta americana | >66 nmol
CCN/C(=N\C#N)NCc1ccc(Cl)nc1 | Periplaneta americana | >170 nmol
CS/C(=N\C#N)NCc1ccc(Cl)nc1 | Periplaneta americana | >83 nmol
CN(C)/C(=N\C#N)NCc1ccc(Cl)nc1 | Periplaneta americana | >170 nmol

Proceed to the following item.
Query (compound): `CN/C(=N\C#N)NCc1ccc(Cl)nc1` ; field requested: MLD
>180 nmol
